Let's go through some Ki measurements on Carbonic anhydrase 2 (Homo sapiens, UniProt P00918) together.
Numbers only, in nM.

Before answering, review these 2 worked examples.
line-notation	number
NS(=O)(=O)c1nnc(NC(=O)c2nn(-c3cccc(/N=N/c4c(O)ccc5ccccc45)c3)c(-c3ccccc3)c2C(=O)Nc2nnc(S(N)(=O)=O)s2)s1	411
CCOC(=O)/C(=N\Nc1cccc(-n2nc(C(=O)Nc3nnc(S(N)(=O)=O)s3)c(C(=O)Nc3nnc(S(N)(=O)=O)s3)c2-c2ccccc2)c1)C(=O)c1ccccc1	435

Would you mind giving Ki for every compound in the list below?
1. CCCC(=O)/C(=N/Nc1cccc(-n2nc(C(=O)Nc3nnc(S(N)(=O)=O)s3)c(C(=O)Nc3nnc(S(N)(=O)=O)s3)c2-c2ccccc2)c1)C(=O)OCC
2. CC(=O)/C(=N/Nc1cccc(-n2nc(C(=O)Nc3nnc(S(N)(=O)=O)s3)c(C(=O)Nc3nnc(S(N)(=O)=O)s3)c2-c2ccccc2)c1)C(=O)c1ccccc1

1. 84
2. 119

----------
# tested-target: Carbonic anhydrase 1 (Homo sapiens, UniProt P00915)
# Sequence (P00915 whole entry): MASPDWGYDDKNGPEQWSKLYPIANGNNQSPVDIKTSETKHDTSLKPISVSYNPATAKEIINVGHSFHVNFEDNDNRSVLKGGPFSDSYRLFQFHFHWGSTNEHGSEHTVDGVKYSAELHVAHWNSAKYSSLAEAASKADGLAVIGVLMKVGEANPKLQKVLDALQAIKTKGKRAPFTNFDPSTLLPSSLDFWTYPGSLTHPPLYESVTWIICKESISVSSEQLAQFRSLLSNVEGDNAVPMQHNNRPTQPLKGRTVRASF
endpoint: Ki (nM)
Numbers only, in nM.

# count of solved cases: 3
compound	endpoint	number
CC1(C)CC(=O)C(=NNc2cccc(-n3nc(C(=O)Nc4nnc(S(N)(=O)=O)s4)c(C(=O)Nc4nnc(S(N)(=O)=O)s4)c3-c3ccccc3)c2)C(=O)C1	Ki	787
COC(=O)C(/N=N/c1cccc(-n2nc(C(=O)Nc3nnc(S(N)(=O)=O)s3)c(C(=O)Nc3nnc(S(N)(=O)=O)s3)c2-c2ccccc2)c1)S(=O)(=O)c1ccccc1 (centres undefined)	Ki	318
CC(=O)/C(=N/Nc1cccc(-n2nc(C(=O)Nc3nnc(S(N)(=O)=O)s3)c(C(=O)Nc3nnc(S(N)(=O)=O)s3)c2-c2ccccc2)c1)C(=O)OC(C)(C)C	Ki	522

Continue with the compound presented below.
Form field: reported Ki of CCOC(=O)/C(=N\Nc1cccc(-n2nc(C(=O)Nc3nnc(S(N)(=O)=O)s3)c(C(=O)Nc3nnc(S(N)(=O)=O)s3)c2-c2ccccc2)c1)C(C)=O
710

Entry source: BindingDB's records for doi:10.1016/j.bioorg.2016.07.006
